# testSystem: Progesterone receptor (Homo sapiens) (UniProt P06401)
# Sequence (P06401 whole entry): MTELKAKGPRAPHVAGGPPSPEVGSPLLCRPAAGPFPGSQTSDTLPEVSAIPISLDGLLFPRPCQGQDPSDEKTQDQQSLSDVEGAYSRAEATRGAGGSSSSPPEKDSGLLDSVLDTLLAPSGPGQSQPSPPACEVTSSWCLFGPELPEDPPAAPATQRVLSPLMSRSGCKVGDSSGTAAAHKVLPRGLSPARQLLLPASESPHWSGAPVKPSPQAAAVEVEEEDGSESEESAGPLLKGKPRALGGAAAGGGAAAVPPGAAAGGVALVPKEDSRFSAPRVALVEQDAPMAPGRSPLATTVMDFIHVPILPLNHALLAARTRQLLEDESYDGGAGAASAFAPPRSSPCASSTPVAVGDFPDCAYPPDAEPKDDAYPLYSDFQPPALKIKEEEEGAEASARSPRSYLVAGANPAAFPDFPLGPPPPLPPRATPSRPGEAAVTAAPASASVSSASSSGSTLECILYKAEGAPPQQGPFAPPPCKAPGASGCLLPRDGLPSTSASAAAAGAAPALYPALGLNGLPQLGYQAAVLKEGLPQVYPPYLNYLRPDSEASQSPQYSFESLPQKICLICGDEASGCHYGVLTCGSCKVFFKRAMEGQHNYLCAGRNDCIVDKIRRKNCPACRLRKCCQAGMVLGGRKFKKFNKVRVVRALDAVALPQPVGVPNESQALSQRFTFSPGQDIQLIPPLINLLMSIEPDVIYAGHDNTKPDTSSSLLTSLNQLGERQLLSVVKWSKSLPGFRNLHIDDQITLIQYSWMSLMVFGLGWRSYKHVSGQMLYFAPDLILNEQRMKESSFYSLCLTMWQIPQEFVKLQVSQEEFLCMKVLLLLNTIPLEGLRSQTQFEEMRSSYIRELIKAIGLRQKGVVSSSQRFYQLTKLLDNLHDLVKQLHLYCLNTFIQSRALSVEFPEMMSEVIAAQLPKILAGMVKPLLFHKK
# assaySummary: Agonist activity at human progesterone receptor expressed in CHO-K1 cells harboring firefly luciferase gene after 20 hrs by One-Glo luciferase reporter gene assay
# Format: cell-based
Activity calls are given as the source filed them. No cut-off for these calls is given here.
propertyMeasured: agonist activity

- CCC(C)(C)C#C[C@]1(O)CC[C@H]2[C@@H]3CCC4=CC(=O)CC[C@@H]4[C@H]3[C@@H](c3ccc(N(C)C)cc3)C[C@@]21C: inactive
- CN(C)c1ccc([C@H]2C[C@@]3(C)[C@@H](CC[C@@]3(O)C#CC(F)(F)F)[C@@H]3CCC4=CC(=O)CC[C@]4(C)[C@H]32)cc1: inactive
- CC#C[C@]1(O)CC[C@H]2[C@@H]3CCC4=CC(=O)CC[C@]4(C)[C@H]3[C@@H](c3ccc(-n4cccc4)cc3)C[C@@]21C: inactive
- CN(C)c1ccc([C@H]2C[C@@]3(C)[C@@H](CC[C@@]3(O)C#CC3CC3)[C@@H]3CCC4=CC(=O)CC[C@]4(C)[C@H]32)cc1: inactive
- CN(C)c1ccc([C@H]2C[C@@]3(C)[C@@H](CC[C@@]3(O)C#CC(C)(C)C)[C@@H]3CCC4=CC(=O)CCC4=C32)cc1: inactive
- CCN(CC)c1ccc([C@H]2C[C@@]3(C)[C@@H](CC[C@@]3(O)C#CC(C)(C)C)[C@@H]3CCC4=CC(=O)CC[C@@H]4[C@H]32)cc1: inactive
- CC(C)(C)C#C[C@]1(O)CC[C@H]2[C@@H]3CCC4=CC(=O)CC[C@@H]4[C@H]3[C@@H](c3ccc(N4CCN(S(C)(=O)=O)CC4)cc3)C[C@@]21C: inactive
- CC(C)(C)C#C[C@]1(O)CC[C@H]2[C@@H]3CCC4=CC(=O)CC[C@@H]4[C@H]3[C@@H](c3ccc(N4CCOCC4)cc3)C[C@@]21C: inactive

* * *

Each entry below carries its recorded Emax at 20 h.
# testSystem: Androgen receptor (Homo sapiens)
# Sequence (P10275 whole entry): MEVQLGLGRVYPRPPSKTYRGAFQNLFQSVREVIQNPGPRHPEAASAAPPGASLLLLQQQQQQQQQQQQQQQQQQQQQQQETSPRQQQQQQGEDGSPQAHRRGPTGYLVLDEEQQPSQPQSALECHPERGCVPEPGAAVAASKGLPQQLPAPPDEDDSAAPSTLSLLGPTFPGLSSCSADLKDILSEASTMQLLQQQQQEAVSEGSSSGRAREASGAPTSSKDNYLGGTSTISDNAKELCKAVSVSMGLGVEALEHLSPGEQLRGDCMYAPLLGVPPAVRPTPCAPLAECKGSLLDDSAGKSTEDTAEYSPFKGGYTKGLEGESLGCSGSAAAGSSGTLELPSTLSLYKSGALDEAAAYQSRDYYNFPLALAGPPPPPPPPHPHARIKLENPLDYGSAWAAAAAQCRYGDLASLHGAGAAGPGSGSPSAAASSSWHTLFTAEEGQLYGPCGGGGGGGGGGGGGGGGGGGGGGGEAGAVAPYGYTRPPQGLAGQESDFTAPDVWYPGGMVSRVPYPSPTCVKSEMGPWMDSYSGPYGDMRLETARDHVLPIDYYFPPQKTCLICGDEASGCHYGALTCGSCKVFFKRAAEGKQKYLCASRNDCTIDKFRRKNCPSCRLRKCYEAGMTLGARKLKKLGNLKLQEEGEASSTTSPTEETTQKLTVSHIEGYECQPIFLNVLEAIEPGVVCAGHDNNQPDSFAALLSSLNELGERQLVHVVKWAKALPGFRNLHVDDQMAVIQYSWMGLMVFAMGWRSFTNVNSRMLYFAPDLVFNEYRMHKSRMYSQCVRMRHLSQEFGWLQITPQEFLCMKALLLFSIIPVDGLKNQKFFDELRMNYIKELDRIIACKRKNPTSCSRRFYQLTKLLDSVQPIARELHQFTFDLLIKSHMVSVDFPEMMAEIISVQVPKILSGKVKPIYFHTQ
# assaySummary: Agonist activity at human androgen receptor in human LNCAP cells harboring firefly luciferase gene after 20 hrs by One-Glo luciferase reporter gene assay relative to mifepristone
# Assay type: cell-based
propertyMeasured: Emax at 20 h (%)

• CCC(C)(C)C#C[C@]1(O)CC[C@H]2[C@@H]3CCC4=CC(=O)CC[C@@H]4[C@H]3[C@@H](c3ccc(N(C)C)cc3)C[C@@]21C = 7.3
• CC#C[C@]1(O)CC[C@H]2[C@@H]3CCC4=CC(=O)CC[C@]4(C)[C@H]3[C@@H](c3ccc(N(C)C(C)C)cc3)C[C@@]21C = 55.9
• CCN(CC)c1ccc([C@H]2C[C@@]3(C)[C@@H](CC[C@@]3(O)C#CC(C)(C)C)[C@@H]3CCC4=CC(=O)CC[C@@H]4[C@H]32)cc1 = 9.4
• CC#C[C@]1(O)CC[C@H]2[C@@H]3CCC4=CC(=O)CC[C@]4(C)[C@H]3[C@@H](c3ccc(N4CCCC4)cc3)C[C@@]21C = 10.6
• COCC#C[C@]1(O)CC[C@H]2[C@@H]3CCC4=CC(=O)CC[C@]4(C)[C@H]3[C@@H](c3ccc(N(C)C)cc3)C[C@@]21C = 17.5
• CC#C[C@]1(O)CC[C@H]2[C@@H]3CCC4=CC(=O)CC[C@]4(C)[C@H]3[C@@H](c3ccc(N(C)C)cc3)C[C@@]21C = 13.3
• CC#C[C@]1(O)CC[C@H]2[C@@H]3CCC4=CC(=O)CC[C@]4(C)[C@H]3[C@@H](c3ccc(OC)cc3)C[C@@]21C = 14.1
• CN(C)c1ccc([C@H]2C[C@@]3(C)[C@@H](CC[C@@]3(O)C#CC3CC3)[C@@H]3CCC4=CC(=O)CC[C@]4(C)[C@H]32)cc1 = 5.4
• CC(C)(C)C#C[C@]1(O)CC[C@H]2[C@@H]3CCC4=CC(=O)CC[C@@H]4[C@H]3[C@@H](c3ccc(N4CCN(S(C)(=O)=O)CC4)cc3)C[C@@]21C = 18.1
• CN1CCN(c2ccc([C@H]3C[C@@]4(C)[C@@H](CC[C@@]4(O)C#CC(C)(C)C)[C@@H]4CCC5=CC(=O)CC[C@@H]5[C@H]43)cc2)CC1 = 7.9
• CC#C[C@]1(O)CC[C@H]2[C@@H]3CCC4=CC(=O)CC[C@]4(C)[C@H]3[C@@H](c3ccc(N(C)CCOC)cc3)C[C@@]21C = 20
• CC(C)C#C[C@]1(O)CC[C@H]2[C@@H]3CCC4=CC(=O)CC[C@]4(C)[C@H]3[C@@H](c3ccc(N(C)C)cc3)C[C@@]21C = 8.3
